These measurements were taken from patent US20070219212A1.

# TESTED TARGET: NS5B from the BK strain (genotype 1b) (Hepatitis C virus genotype 1b)
# Construct: NS5B from the BK strain (genotype 1b) is expressed in E coli as a protein in which the 21 C-terminal amino acids are replaced
# METHOD: Hepatitis C polymerase (NS5B, BK strain) inhibition, radioactive filter assay
# MEASUREMENT PARAMETERS: NS5B BK strain (genotype 1b)
pIC50: −log10 of the molar value.
READOUT TYPE: pIC50

// below: answered molecules
| MOLECULE | pIC50 |
| --- | --- |
| CCCC1(CC(=O)O)OCCc2c1[nH]c1c(C)c(OCC(=O)NC)cc(C#N)c21 (stereo not shown) | > 6.30 |
| CCCC1(CC(=O)O)OCCc2c1[nH]c1c(C)c(OCC3CN(S(C)(=O)=O)C3)cc(C#N)c21 (stereo not shown) | > 6.30 |
| CCCC1(CC(=O)O)OCCc2c1[nH]c1c(C)c(COc3cccc(F)c3)cc(C#N)c21 (stereo not shown) | > 6.30 |
| CCCC1(CC(=O)O)OCCc2c1[nH]c1c(C)c(OCCSC)cc(C#N)c21 (stereo not shown) | > 6.30 |
| CCCC1(CC(=O)O)OCCc2c1[nH]c1c(C)c(CO)cc(C#N)c21 (stereo not shown) | > 6.30 |
| CCCC1(CC(=O)O)OCCc2c1[nH]c1c(C)c(OCC(C)=O)cc(C#N)c21 (stereo not shown) | 5.30 to 6.30 |
| CCCC1(CC(=O)O)OCCc2c1[nH]c1c(C)c(CO[C@H]3CCOC3)cc(C#N)c21 (mixture of isomers) | 5.30 to 6.30 |
| CCCC1(CC(=O)O)OCCc2c1[nH]c1c(C)c(OCc3cnccn3)cc(C#N)c21 (stereo not shown) | > 6.30 |
| CCCC1(CC(=O)O)OCCc2c1[nH]c1c(C)c(OCc3ccn(C)n3)cc(C#N)c21 (stereo not shown) | > 6.30 |
| CCC[C@]1(CC(=O)O)OCCc2c1[nH]c1c(C)c(OC[C@@H](C)OC)cc(C#N)c21 | > 6.30 |

Respectfully, I request pIC50 for each entry included below.
1. CCCC1(CC(=O)O)OCCc2c1[nH]c1c(C)c(OCc3cc(C(F)(F)F)n(C)n3)cc(C#N)c21 (stereo not shown)
2. CCCC1(CC(=O)O)OCCc2c1[nH]c1c(C)c(OCc3ccccn3)cc(C#N)c21 (stereo not shown)
3. CCC[C@@]1(CC(=O)O)OCCc2c1[nH]c1c(C)c(O)cc(C#N)c21
4. CCCC1(CC(=O)O)OCCc2c1[nH]c1c(C)c(OCC(C)OC)cc(C#N)c21 (stereo not shown)
5. CCCC1(CC(=O)O)OCCc2c1[nH]c1c(C)c(OCC(C)=NOC)cc(C#N)c21 (stereo not shown)
6. CCCC1(CC(=O)O)OCCc2c1[nH]c1c(C)c(OCc3cc(C)[nH]n3)cc(C#N)c21 (stereo not shown)

A:
1. > 6.30
2. > 6.30
3. < 5.30
4. > 6.30
5. > 6.30
6. > 6.30

---

# TESTED TARGET: BB7 RNA-dependent RNA polymerase hepatitis C virus protein (Con1 HCV sequence) (Hepatitis C virus genotype 1b)
# Sequence (Q9WMX2 2420-3010): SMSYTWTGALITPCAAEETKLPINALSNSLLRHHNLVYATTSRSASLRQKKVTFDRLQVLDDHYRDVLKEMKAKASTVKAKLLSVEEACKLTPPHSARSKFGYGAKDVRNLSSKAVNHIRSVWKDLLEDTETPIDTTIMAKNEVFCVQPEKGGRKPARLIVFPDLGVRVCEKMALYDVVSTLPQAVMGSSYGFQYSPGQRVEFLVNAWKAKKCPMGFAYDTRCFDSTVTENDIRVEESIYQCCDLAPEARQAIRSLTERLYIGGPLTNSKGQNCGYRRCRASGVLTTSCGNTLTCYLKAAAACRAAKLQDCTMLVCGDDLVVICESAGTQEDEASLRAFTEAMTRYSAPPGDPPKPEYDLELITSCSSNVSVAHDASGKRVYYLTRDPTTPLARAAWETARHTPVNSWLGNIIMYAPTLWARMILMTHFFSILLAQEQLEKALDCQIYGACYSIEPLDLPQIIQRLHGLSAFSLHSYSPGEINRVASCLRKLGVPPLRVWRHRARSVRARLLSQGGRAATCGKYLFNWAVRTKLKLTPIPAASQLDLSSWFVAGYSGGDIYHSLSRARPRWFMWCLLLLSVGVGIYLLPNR
# METHOD: Hepatitis C polymerase (BB7) inhibition
# Type: biochemical
# MEASUREMENT PARAMETERS: BB7 (Con1) NS5B; read-out: BB7 IC50
# Description: For purposes of this invention, the term “BB7” denotes an RNA-dependent RNA polymerase hepatitis C virus protein sequence which is derived from HCV replicon. A discussion of BB7 and related technology can be found in Blight, K. et al. (2000) Science 290:1972-1974. BB7 can be licensed from Apath, LLC (893 North Warson Road, Saint Louis Mo. 63141, USA). […]
pIC50: −log10 of the molar value.
READOUT TYPE: pIC50

// below: answered compounds
| COMPOUND | pIC50 |
| --- | --- |
| CCCC1(CC(=O)O)OCCc2c1[nH]c1c(C)c(OCc3ccnc(COC)c3)cc(C#N)c21 (centres unmarked) | > 6.30 |
| CCCC1(CC(=O)O)OCCc2c1[nH]c1c(C)c(OCCCS(C)(=O)=O)cc(C#N)c21 (centres unmarked) | > 6.30 |
| CCCC1(CC(=O)O)OCCc2c1[nH]c1c(C)c(OCCOCC3CC3)cc(C#N)c21 (centres unmarked) | > 6.30 |

Respectfully, I request pIC50 for each entry included below.
1. CCCC1(CC(=O)O)OCCc2c1[nH]c1c(C)c(OCc3cc(C)nc(C)c3)cc(C#N)c21 (centres unmarked)
2. CCCC1(CC(=O)O)OCCc2c1[nH]c1c(C)c(OCc3c[nH]cn3)cc(C#N)c21 (centres unmarked)
3. CCCC1(CC(=O)O)OCCc2c1[nH]c1c(C)c(OCc3cc(C(F)(F)F)n[nH]3)cc(C#N)c21 (centres unmarked)
4. CCCC1(CC(=O)O)OCCc2c1[nH]c1c(C)c(O[C@@H]3CCOC3)cc(C#N)c21 (some centres unmarked)

A:
> 6.30
> 6.30
> 6.30
> 6.30

---

# TESTED TARGET: NS5B from the BK strain (genotype 1b) (Hepatitis C virus genotype 1b)
# Construct: NS5B from the BK strain (genotype 1b) is expressed in E coli as a protein in which the 21 C-terminal amino acids are replaced
# METHOD: Hepatitis C polymerase (NS5B, BK strain) inhibition, radioactive filter assay
# MEASUREMENT PARAMETERS: NS5B BK strain (genotype 1b)
pIC50: −log10 of the molar value.
READOUT TYPE: pIC50

| COMPOUND | EXPERIMENTAL VALUE |
| --- | --- |
| CCCC1(CC(=O)O)OCCc2c1[nH]c1c(C)c(OCC(C)=NOCC)cc(C#N)c21 (stereo not shown) [Example 104] | > 6.30 |
| CCCC1(CC(=O)O)OCCc2c1[nH]c1c(C)c(OCc3ccc(C(F)(F)F)nc3)cc(C#N)c21 (stereo not shown) [Example 73] | > 6.30 |
| CCCC1(CC(=O)O)OCCc2c1[nH]c1c(C)c(COC3CCC3)cc(C#N)c21 (stereo not shown) [Example 6] | 5.30 to 6.30 |
| CCCC1(CC(=O)O)OCCc2c1[nH]c1c(C)c(OCc3cc(CC)n(C)n3)cc(C#N)c21 (stereo not shown) [Example 139] | > 6.30 |
| CCCC1(CC(=O)O)OCCc2c1[nH]c1c(C)c(OCc3nnnn3C)cc(C#N)c21 (stereo not shown) [Example 116] | > 6.30 |

Respectfully, I request pIC50 for each entry included below.
1. CCC[C@]1(CC(=O)O)OCCc2c1[nH]c1c(C)c(OCc3conc3C)cc(C#N)c21 [Example 125]
2. CCCC1(CC(=O)O)OCCc2c1[nH]c1c(C)c(COCc3ccc(C)cc3C)cc(C#N)c21 (stereo not shown) [Example 17]
3. CCCC1(CC(=O)O)OCCc2c1[nH]c1c(C)c(COCC3CCC3)cc(C#N)c21 (stereo not shown) [Example 9]
4. CCCC1(CC(=O)O)OCCc2c1[nH]c1c(C)c(OCC3CCS(=O)(=O)CC3)cc(C#N)c21 (stereo not shown) [Example 107]
5. CCCC1(CC(=O)O)OCCc2c1[nH]c1c(C)c(OCc3nnc(C(C)(C)C)s3)cc(C#N)c21 (stereo not shown) [Example 87]
6. CCCC1(CC(=O)O)OCCc2c1[nH]c1c(C)c(OCCN(C)Cc3ccccc3)cc(C#N)c21 (stereo not shown) [Example 114]
7. CCC[C@]1(CC(=O)O)OCCc2c1[nH]c1c(C)c(O)cc(C#N)c21 [Example 46]
8. CCCC1(CC(=O)O)OCCc2c1[nH]c1c(C)c(COC)cc(C#N)c21 (stereo not shown) [Example 2]

A:
1: > 6.30; 2: 5.30 to 6.30; 3: 5.30 to 6.30; 4: > 6.30; 5: > 6.30; 6: > 6.30; 7: > 6.30; 8: 5.30 to 6.30

---

# TESTED TARGET: NS5B from the BK strain (genotype 1b) (Hepatitis C virus genotype 1b, UniProt P26663)
# Construct: NS5B from the BK strain (genotype 1b) is expressed in E coli as a protein in which the 21 C-terminal amino acids are replaced
# Sequence (P26663 2420-2989): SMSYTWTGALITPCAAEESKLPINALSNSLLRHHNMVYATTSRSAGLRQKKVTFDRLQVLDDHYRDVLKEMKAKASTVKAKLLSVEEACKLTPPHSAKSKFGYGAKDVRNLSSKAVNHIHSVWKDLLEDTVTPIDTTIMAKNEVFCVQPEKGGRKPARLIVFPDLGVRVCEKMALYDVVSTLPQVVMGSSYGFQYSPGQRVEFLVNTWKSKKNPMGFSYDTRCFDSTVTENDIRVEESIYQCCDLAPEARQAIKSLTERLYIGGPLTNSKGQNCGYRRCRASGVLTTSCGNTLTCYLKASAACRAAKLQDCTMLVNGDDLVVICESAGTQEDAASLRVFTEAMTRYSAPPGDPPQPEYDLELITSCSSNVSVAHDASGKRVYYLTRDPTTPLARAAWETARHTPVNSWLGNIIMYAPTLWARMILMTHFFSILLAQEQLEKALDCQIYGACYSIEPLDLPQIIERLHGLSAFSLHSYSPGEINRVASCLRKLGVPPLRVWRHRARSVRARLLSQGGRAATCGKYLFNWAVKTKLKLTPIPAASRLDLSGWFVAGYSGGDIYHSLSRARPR
# METHOD: Hepatitis C polymerase (NS5B, BK strain) inhibition, radioactive filter assay
# MEASUREMENT PARAMETERS: NS5B BK strain (genotype 1b)
Field: IC50. Provide a value for each of the molecules that follow.

Respectfully, I request IC50 for each entry included below.
1. CC[C@H](C)C1(CC(=O)O)OCCc2c1[nH]c1c(C)c(OCCOC(C)C)cc(C#N)c21 (mixture of isomers) [Example 34]
2. CCCC1(CC(=O)O)OCCc2c1[nH]c1c(C)c(OCc3nnc(C)s3)cc(C#N)c21 (centres unmarked) [Example 133]
3. CCCC1(CC(=O)O)OCCc2c1[nH]c1c(C)c(OCc3cc(C)n(C)n3)cc(C#N)c21 (centres unmarked) [Example 78]
4. CCCC1(CC(=O)O)OCCc2c1[nH]c1c(C)c(COCC3CCCC3)cc(C#N)c21 (centres unmarked) [Example 10]

A:
["< 500 nM", "< 500 nM", "< 500 nM", "500 to 5000 nM"]
